FYI, the data here is from patent US20120094909A1.

target: human PCSK9 (proprotein convertase subtilisin kexin type 9) (human, UniProt Q8NBP7 31-692); assay: cell-based or functional assay
Sequence (Q8NBP7 31-692 limits assumed): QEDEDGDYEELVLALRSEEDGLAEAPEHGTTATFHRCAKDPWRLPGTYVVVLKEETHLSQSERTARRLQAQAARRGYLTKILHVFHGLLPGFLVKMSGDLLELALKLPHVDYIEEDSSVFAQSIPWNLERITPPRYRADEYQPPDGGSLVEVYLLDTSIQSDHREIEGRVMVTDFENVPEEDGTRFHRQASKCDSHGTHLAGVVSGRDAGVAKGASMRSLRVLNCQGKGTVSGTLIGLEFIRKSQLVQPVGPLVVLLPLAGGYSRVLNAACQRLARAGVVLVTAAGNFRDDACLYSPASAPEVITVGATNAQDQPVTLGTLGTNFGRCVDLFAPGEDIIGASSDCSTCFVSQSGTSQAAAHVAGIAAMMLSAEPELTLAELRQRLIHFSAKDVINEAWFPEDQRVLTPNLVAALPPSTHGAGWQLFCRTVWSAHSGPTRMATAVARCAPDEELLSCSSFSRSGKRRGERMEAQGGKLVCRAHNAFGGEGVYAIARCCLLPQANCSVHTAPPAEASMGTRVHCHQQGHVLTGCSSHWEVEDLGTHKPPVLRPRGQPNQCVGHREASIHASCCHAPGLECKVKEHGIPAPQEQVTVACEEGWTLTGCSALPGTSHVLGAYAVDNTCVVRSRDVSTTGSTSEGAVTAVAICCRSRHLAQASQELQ
The entries below come with measured LDLR Depletion EC50 values attached.

- binder: "1813E02 (designed binder, Anti-PCSK9 Adnectin, His6-tagged) MGVSDVPRDLEVVAATPTSLLISWSPPANGYGYYRITYGETGGNSPVQEFTVPVGRGTATISGLKPGVDYTITVYAVEYTYKGSGYYHRPISINYRTEIDKPSQHHHHHH"
  LDLR Depletion EC50 [nM]: 16
- binder: "2012A04 (designed binder, Anti-PCSK9 Adnectin, His6-tagged) MGVSDVPRDLEVVAATPTSLLISWRPPSNGHGYYRITYGETGGNSPVQEFTVPVNEGTATISGLKPGVDYTITVYAVEFPFKWSGYYHRPISINYRTEIDKPSQHHHHHH"
  LDLR Depletion EC50 [nM]: 12
- binder: "1784F03 (designed binder, Anti-PCSK9 Adnectin, His6-tagged) MGVSDVPRDLEVVAATPTSLLISWRPPIHAYGYYRITYGETGGNSPVQEFTVPIVEGTATISGLKPGVDYTITVYAVEYTFKHSGYYHRPISINYRTEIDKPSQHHHHHH"
  LDLR Depletion EC50 [nM]: 26
- binder: "1923B02 (designed binder, Anti-PCSK9 Adnectin, His6-tagged) MGVSDVPRDLEVVAATPTSLLISWTPPPKGYGYYRITYGETGGNSPVQEFTVPVGEGTATISGLKPGVDYTITVYAVEYTYNGAGYYHRPISINYRTEIDKPSQHHHHHH"
  LDLR Depletion EC50 [nM]: 23
